Quantity measured: pIC50
As a rule, pIC50 stands for the negative log10 of the concentration, concentration in M.

Checklist item: pIC50 tested on Human immunodeficiency virus type 1 protease (Human immunodeficiency virus 1), entry O=c1oc2ccccc2c(O)c1C(c1ccccc1)c1c(O)c2ccccc2oc1=O , value?
4.37

Checklist item: pIC50 tested on Human immunodeficiency virus type 1 protease (Human immunodeficiency virus 1), entry CC(=O)CC(c1ccccc1)c1c(O)c2ccc(C)c(C)c2oc1=O (stereo unspecified) , value?
5.72

Checklist item: pIC50 tested on Human immunodeficiency virus type 1 protease (Human immunodeficiency virus 1), entry O=c1oc2cc(O)ccc2c(O)c1C(c1ccc2ccccc2c1)c1c(O)c2ccc(O)cc2oc1=O , value?
5.38

Checklist item: pIC50 tested on Human immunodeficiency virus type 1 protease (Human immunodeficiency virus 1), entry CCCC1(CCC)CC(O)=C(C(c2ccccc2)C2CC2)C(=O)O1 (stereo unspecified) , value?
5.30

Checklist item: pIC50 tested on Human immunodeficiency virus type 1 protease (Human immunodeficiency virus 1), entry O=c1oc2ccccc2c(O)c1C(c1ccc(C(c2c(O)c3ccccc3oc2=O)c2c(O)c3ccccc3oc2=O)cc1)c1c(O)c2ccccc2oc1=O , value?
4.94

Checklist item: pIC50 tested on Human immunodeficiency virus type 1 protease (Human immunodeficiency virus 1), entry O=c1oc(-c2ccccc2)cc(O)c1C(SC1CCCC1)C1CCCC1 (stereo unspecified) , value?
6.65

Checklist item: pIC50 tested on Human immunodeficiency virus type 1 protease (Human immunodeficiency virus 1), entry O=C(O)COc1ccc(-c2cc(O)c(SCCc3ccccc3)c(=O)o2)cc1 , value?
6.80

Checklist item: pIC50 tested on Human immunodeficiency virus type 1 protease (Human immunodeficiency virus 1), entry O=c1oc(-c2ccccc2)cc(O)c1Sc1ccccc1 , value?
5.52

Checklist item: pIC50 tested on Human immunodeficiency virus type 1 protease (Human immunodeficiency virus 1), entry O=c1oc2cc(O)ccc2c(O)c1-c1ccc(O)cc1 , value?
5.70

Checklist item: pIC50 tested on Human immunodeficiency virus type 1 protease (Human immunodeficiency virus 1), entry CCOC(=O)C(C(C)=O)C(c1cccc([N+](=O)[O-])c1)c1c(O)c2ccccc2oc1=O (stereo unspecified) , value?
11.00

Checklist item: pIC50 tested on Human immunodeficiency virus type 1 protease (Human immunodeficiency virus 1), entry O=C(O)CCCCC1(c2ccccc2)CC(O)=C(SCCc2ccccc2)C(=O)O1 (stereo unspecified) , value?
5.30

* * *

Method: Cytotoxicity against African green monkey Vero cells
Format: toxicity, cell-based
Condition set: chlorocebus sabaeus, read-out: CD50 (the source's name)
Quantity measured: CC50 (mg/L)
Provide the reading as a plain figure in mg/L.

Query (compound): O=C(COc1cc(=O)oc2ccccc12)NN1C(=O)CSC1c1ccc(Cl)cc1 (stereo unspecified) ; field requested: CC50
20

* * *

System: Human immunodeficiency virus type 1 protease (Human immunodeficiency virus 1) (UniProt Q72874)
Method: Inhibition of HIV-1 protease
ID50 less than 2 µM is rule met; ID50 greater than or equal to 2 µM is rule not met.

ID50 under 2 µM? Item: O=c1oc2ccccc2c(O)c1Sc1c(O)c2ccccc2oc1=O
rule not met

ID50 under 2 µM? Item: CCCCCCc1cc2c(O)c(C(c3ccccc3)c3c(O)c4cc(CCCCCC)c(O)cc4oc3=O)c(=O)oc2cc1O
rule met

ID50 under 2 µM? Item: O=c1oc2ccccc2c(O)c1C(c1ccc(C(c2c(O)c3ccccc3oc2=O)c2c(O)c3ccccc3oc2=O)cc1)c1c(O)c2ccccc2oc1=O
rule met

ID50 under 2 µM? Item: O=c1oc2ccccc2c(O)c1C(c1ccc2c(c1)OCO2)c1c(O)c2ccccc2oc1=O
rule not met

ID50 under 2 µM? Item: CC(C)c1cccc(C(C)C)c1NC(=O)C(=O)CC(=O)CC(c1ccccc1)c1c(O)c2ccccc2oc1=O (stereo not given)
rule not met

* * *

Tested on: Human immunodeficiency virus
Method: Antiviral activity against HIV infected in human H9 cells
Assay type: functional, organism-based
Condition set: Human immunodeficiency virus 1, H9; read-out: EC50
EC50 less than 1 µg/mL is TRUE; EC50 greater than or equal to 1 µg/mL is FALSE.

EC50 under 1 µg/mL? Item: COC(C)(C)C(O)COc1c2ccoc2cc2oc(=O)ccc12 (centres undefined)
FALSE

EC50 under 1 µg/mL? Item: CC(C)(O)C(O)COc1c2occc2cc2ccc(=O)oc12 (centres undefined)
TRUE

EC50 under 1 µg/mL? Item: CC(C)(Cl)C(O)COc1c2occc2cc2ccc(=O)oc12 (centres undefined)
FALSE

EC50 under 1 µg/mL? Item: COc1c2ccoc2cc2oc(=O)ccc12
TRUE

EC50 under 1 µg/mL? Item: O=c1ccc2cc3ccoc3cc2o1
TRUE

EC50 under 1 µg/mL? Item: CC(C)=CCOc1c2occc2cc2ccc(=O)oc12
TRUE

EC50 under 1 µg/mL? Item: CC(C)(O)C(O)COc1c2ccoc2cc2oc(=O)ccc12 (centres undefined)
FALSE

EC50 under 1 µg/mL? Item: CC1(C)OC1COc1c2occc2cc2ccc(=O)oc12 (centres undefined)
FALSE

* * *

Task for the reader: assign each of the following compounds its reported Ki.
System: Human immunodeficiency virus type 1 protease (Human immunodeficiency virus 1, UniProt Q72874)
Provide the reading as a plain figure in nM.

Query (compound): CCC(Cc1ccccc1)c1cc(O)c(C(c2cccc(N[C@@H](C)C(=O)OC(C)(C)C)c2)C2CC2)c(=O)o1 (some centres not stated) ; field requested: Ki
15

Query (compound): CCC(c1cccc(NS(=O)(=O)c2ccc(C#N)cn2)c1)c1c(O)c2c(oc1=O)CCCC2 (configuration not stated) ; field requested: Ki
0.05

* * *

Task for the reader: assign each of the following compounds its reported selectivity ratio.
Method: Therapeutic index, ratio of IC50 for cytotoxicity against human H9 cells to EC50 for antiviral activity against HIV-1 infected in H9 cells
Type: toxicity, cell-based
Condition set: read-out: Ratio IC50/EC50

Query (compound): CC1(C)Oc2ccc3ccc(=O)oc3c2[C@@H](OC(=O)[C@@]23CC[C@](C)(C(=O)O2)C3(C)C)[C@H]1OC(=O)C12CCC(C)(C(=O)O1)C2(C)C ; field requested: selectivity ratio
137000

Query (compound): CC(=O)O[C@@H]1C(OCC(C)C)c2c(ccc3ccc(=O)oc23)OC1(C)C (single isomer, unassigned) ; field requested: selectivity ratio
30.6

* * *

Method: Half life in dog
Type: ADME, Canis lupus familiaris
Condition set: in vivo
Quantity measured: half-life (h)
Provide the reading as a plain figure in h.

Query (compound): N#Cc1ccc(S(=O)(=O)Nc2cccc(C(c3c(O)c4c(oc3=O)CCCCCC4)C3CC3)c2)cc1 (stereo unspecified) ; field requested: half-life
6

* * *

Method: Inhibition of Hepatitis C virus NS5B polymerase
Set-up: species or system Hepacivirus hominis
Quantity measured: IC50 (µM)
Provide the reading as a plain figure in µM.

Query (compound): COc1cc(O)c2c(c1)oc(=O)c1c3cc(O)c(O)cc3oc21 ; field requested: IC50
36.1

Query (compound): O=c1oc2cc(O)c(O)cc2c2oc3cc4c(cc3c12)OCO4 ; field requested: IC50
63.8

Query (compound): COc1cc2c(cc1O)oc(=O)c1c3cc(O)c(O)cc3oc21 ; field requested: IC50
18.5

Query (compound): COc1cc2c(cc1O)oc1c3ccc(O)cc3oc(=O)c21 ; field requested: IC50
174

Query (compound): COc1cc2oc(=O)c3c4cc(OC)c(O)cc4oc3c2cc1O ; field requested: IC50
311

* * *

Task for the reader: assign each of the following compounds its reported IC50.
Provide the reading as a plain figure in µM.

Checklist item: IC50 tested on Human immunodeficiency virus type 1 reverse transcriptase (Human immunodeficiency virus 1), entry CCCc1cc(=O)oc2c3c(c4c(c12)OC(C)(C)C=C4)O[C@H](C)[C@@H](C)C3=O , value?
19

Checklist item: IC50 tested on Human immunodeficiency virus type 1 reverse transcriptase (Human immunodeficiency virus 1), entry CCCc1cc(=O)oc2c3c(c4c(c12)OC(C)(C)C=C4)O[C@H](C)[C@H](C)[C@@H]3O [CALANOLIDE C] , value?
30

Checklist item: IC50 tested on Human immunodeficiency virus type 1 reverse transcriptase (Human immunodeficiency virus 1), entry Cc1cc(=O)oc2c3c(c4c(c12)OC(C)(C)C=C4)O[C@H](C)[C@@H](C)[C@H]3O , value?
19

Checklist item: IC50 tested on Human immunodeficiency virus type 1 reverse transcriptase (Human immunodeficiency virus 1), entry Cc1cc(=O)oc2c3c(c4c(c12)OC(C)(C)C=C4)O[C@H](C)[C@@H](C)[C@@H]3O [(+)-CORDATOLIDE A] , value?
12.3

Checklist item: IC50 tested on Human immunodeficiency virus type 1 reverse transcriptase (Human immunodeficiency virus 1), entry CCCc1cc(=O)oc2c3c(c4c(c12)OC(C)(C)C=C4)O[C@H](C)[C@@H](C)[C@H]3O [(+)-CALANOLIDE B] , value?
15

Checklist item: IC50 tested on Human immunodeficiency virus type 1 reverse transcriptase (Human immunodeficiency virus 1), entry CCCc1cc(=O)oc2c3c(c4c(c12)OC(C)(C)C=C4)O[C@H](C)[C@@H](C)[C@@H]3O [CALANOLIDE A] , value?
20
